- experimentalDetails: Dissociation constant of aptamer-DMHBI complexes by fluorescence titration
- Assay type: binding
- measurementParameters: aptamer not named; read-out: Kd of the complex (RNA-bound DMHBI)
observable: Kd
Could you write the number and then its unit?

stdin: Entry under review: COc1cc(/C=C2\N=C(C)N(C)C2=O)cc(OC)c1O . Reported Kd?
stdout: 500 nM

---

- experimentalDetails: Phenolic pKa and phenol/phenolate absorbance of fluorophores
- Format: physicochemical
- measurementParameters: phenolic proton of free fluorophore
observable: pKa

stdin: Entry under review: CC1=N/C(=C\c2ccccc2O)C(=O)N1C . Reported pKa?
stdout: ~10

stdin: Entry under review: CC1=N/C(=C\c2cc(F)c(O)c(F)c2)C(=O)N1C . Reported pKa?
stdout: ~6
